meta.source: the supplement of paper PMC11208160

# ASSAY PROTOCOL: recombinant UMI read abundance after kanamycin selection (control-corrected) (log10(CPM+1)); higher = more efficient recombination; extreme values may be limits of the assay; sequences stand for … in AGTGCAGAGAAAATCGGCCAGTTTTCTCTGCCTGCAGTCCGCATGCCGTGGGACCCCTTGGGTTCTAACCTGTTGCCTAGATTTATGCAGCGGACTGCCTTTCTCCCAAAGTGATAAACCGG…AGGTTGGTTTCACT; site = the 11-nt donor;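 further: IS621 bridge recombinase in Escherichia coli cells against a fixed T5 target plasmid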

{"BIOSEQUENCE": "CCATGGTCATGGACCGGTTTTCCCGGTAATCCGTATTTGAA (site CCATGGTCTTT)", "recombinant UMI read abundance (log10)": 0.724}
{"BIOSEQUENCE": "GCTTGCCCATGGACCGGTTTTCCCGGTAATCCGTATTTGAT (site GCGTGCCCTAT)", "recombinant UMI read abundance (log10)": 0.0338}
{"BIOSEQUENCE": "AGAAAGACATGGACCGGTTTTCCCGGTAATCCGTATTTGCA (site AGTAAGACTTG)", "recombinant UMI read abundance (log10)": 1.15}
{"BIOSEQUENCE": "TACTTGACATGGACCGGTTTTCCCGGTAATCCGTATTTGAT (site TACTTGACTAA)", "recombinant UMI read abundance (log10)": 0.0207}
{"BIOSEQUENCE": "GAATGTCCATGGACCGGTTTTCCCGGTAATCCGTATTTGCA (site GAATGCCCTTG)", "recombinant UMI read abundance (log10)": 0}

----------
# ASSAY PROTOCOL: recombinant UMI read abundance after kanamycin selection (control-corrected) (log10(CPM+1)); higher = more efficient recombination; extreme values may be limits of the assay; sequences stand for … in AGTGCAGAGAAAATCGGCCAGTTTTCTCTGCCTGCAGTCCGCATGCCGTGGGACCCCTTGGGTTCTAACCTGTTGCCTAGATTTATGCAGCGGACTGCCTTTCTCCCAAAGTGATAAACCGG…AGGTTGGTTTCACT; site = the 11-nt donor
recombinant UMI read abundance (log10) for assorted sequences

{"BIOSEQUENCE": "CGCATCCCATGGACCGGTTTTCCCGGTAATCCGTATTTGGC (site CGCATCCCTGC)", "recombinant UMI read abundance (log10)": 1.75}
{"BIOSEQUENCE": "GTGATTCCATGGACCGGTTTTCCCGGTAATCCGTATTTGAC (site GTGATTCCTGT)", "recombinant UMI read abundance (log10)": 1.95}
{"BIOSEQUENCE": "CTTGAGACATGGACCGGTTTTCCCGGTAATCCGTATTTGGT (site GTTGAGACTAC)", "recombinant UMI read abundance (log10)": 0.00699}
{"BIOSEQUENCE": "GATTATGCATGGACCGGTTTTCCCGGTAATCCGTATTTGCT (site GATTATACTAG)", "recombinant UMI read abundance (log10)": 1.54}
{"BIOSEQUENCE": "ATCGTGCCATGGACCGGTTTTCCCGGTAATCCGTATTTGTT (site ATCGTGCCTAA)", "recombinant UMI read abundance (log10)": 0.0076}
{"BIOSEQUENCE": "TAAGTCACATGGACCGGTTTTCCCGGTAATCCGTATTTGGG (site CAAGTCACTCC)", "recombinant UMI read abundance (log10)": 0.0119}
{"BIOSEQUENCE": "AGCTATGCATGGACCGGTTTTCCCGGTAATCCGTATTTGAT (site AGCTATGCTAT)", "recombinant UMI read abundance (log10)": 1.79}
{"BIOSEQUENCE": "ACTCTTTCATGGACCGGTTTTCCCGGTAATCCGTATTTGTT (site ACTCTTTCTAA)", "recombinant UMI read abundance (log10)": 0.0432}
{"BIOSEQUENCE": "AGCCTAGCATGGACCGGTTTTCCCGGTAATCCGTATTTGTT (site ATCCTAGCTAA)", "recombinant UMI read abundance (log10)": 0.0142}
